Listed molecules paired with reported pEC50
Test system: phospho-ERK in Panc1 (G12D)
Experiment: In-Cell Western phospho-ERK, Panc1
Type: cell-based
Details: Homo sapiens, PANC-1, 1 h; Panc1, one hour treatment; read-out: In-Cell Western Panc1 (G12D) Erk (P)
Keep it numeric: pEC50 is minus log10 of the concentration in mol/L.

Before answering, review these 8 worked examples.
MOL	pEC50
Cc1nc(C)c(C(=O)Nc2nc(-c3ccc4c(c3)CCC(=O)N4Cc3ccccc3)cs2)o1	5.40
CCc1nc(C)c(C(=O)Nc2nc(-c3ccc4c(c3)CCC(=O)N4Cc3cccnc3)cs2)o1	5.30
Cc1nc(C2CCC2)oc1C(=O)Nc1nc(-c2ccc3c(c2)CCC(=O)N3Cc2cccnc2)cs1	5.22
Cc1nn(C)c(C)c1C(=O)Nc1nc(-c2ccc3c(c2)CCC(=O)N3Cc2cccnc2)cs1	5.70
Cc1nc(C)c(C(=O)Nc2nc(-c3ccc4c(c3)CCC(=O)N4)c(Cl)s2)s1	5.22
Cc1nc(CN)sc1C(=O)Nc1nc(-c2ccc3c(c2)CCC(=O)N3)cs1	4.92
Cc1nn(C)cc1C(=O)Nc1nc(-c2ccc3c(c2)CCC(=O)N3Cc2cccnc2)cs1	5.40
CCn1nc(C)c(C(=O)Nc2nc(-c3ccc4c(c3)CCC(=O)N4)cs2)c1C	5.70

Switching to the query record.
# pEC50 lookup, item `Cc1nc(C(C)C)oc1C(=O)Nc1nc(-c2ccc3c(c2)CCC(=O)N3Cc2cccnc2)cs1`
5.10

====

IC50 reference
Tested on: U87-MG (K-Ras wild type cell line)
Assay: Viability assay (CellTiterBlue, 72 hr) U87-MG
Type: cell-based
Conditions: Homo sapiens, U-87 MG, GI50, CellTiterBlue, U87-MG cells (K-Ras wild-type)
Enter your answer as a number in µM; do not include the unit.

Worked cases, answers included:
MOL	VALUE UNITS	IC50
Cn1nccc1-c1csc(C(=O)Nc2nc(-c3ccc4c(c3)CCC(=O)N4)cs2)c1	µM	5
O=C1CCc2cc(-c3csc(NC(=O)c4ccc(Cl)s4)n3)ccc2N1	µM	8

Please turn your attention to the following entry.
Notebook: pull reported IC50 for U87-MG (K-Ras wild type cell line), entry `O=C1CCc2cc(-c3csc(NC(=O)c4cc(Br)cs4)n3)ccc2N1`
11

====

Test system: Panc10.05-G12D
Test: Viability assay (CellTiterBlue, 72 hr) Panc10.05
Assay type: cell-based
Conditions: Homo sapiens, Panc1005, GI50, CellTiterBlue, Panc10.05 K-Ras G12D, read-out: 72 hr Cell Viability Panc10.05 (G12D)
ENDPOINT: IC50 (µM)
Numeric answer only, unit µM assumed.

Below, each entry is followed by its recorded IC50 result.
MOL	IC50 / µM
Cc1nc(C2CC2)oc1C(=O)Nc1nc(-c2ccc3c(c2)CCC(=O)N3CCc2ccccc2)cs1	0.87
Cc1nc(C2CCC2)oc1C(=O)Nc1nc(-c2ccc3c(c2)CCC(=O)N3Cc2cccnc2)cs1	3
COC(=O)CCCN1C(=O)CCc2cc(-c3csc(NC(=O)c4oc(C)nc4C)n3)ccc21	5

Entry under review: `Cc1nc(C)c(C(=O)Nc2nc(-c3ccc4c(c3)CCC(=O)N4CCC(=O)N(C)C)cs2)o1` . Reported IC50?
5

Would you mind doing `Cc1cc(C(=O)Nc2nc(-c3ccc4c(c3)CCC(=O)N4)cs2)n(C)n1` as well?
0.734

Subsequent entry: `Cn1nc2ccccc2c1C(=O)Nc1nc(-c2ccc3c(c2)CCC(=O)N3)cs1`
1.1
